# Measurement Protocol: Toxicity liver stage against HepG2, at 10uM
# Format: cell-based
# Design: test concentration 10 uM, cell line HepG2-A16-CD81EGFP
# Details: human, HepG2-A16-CD81EGFP cells; read-out: INHIBITION
Measured Attribute: cytotoxicity at 10 µM (%)
I only need the number, in %, no unit after it.

Q: So what does the record say about cytotoxicity at 10 µM for `CCO[C@H]1CN(C(=O)c2ccnnc2)[C@@H]2COC[C@H]12` ?
Ans: 0.403

Q: Same lookup for COc1cccc(CC2CN(C3CC(C)(C)NC(C)(C)C3)CCO2)c1 (stereo not drawn) , please.
Ans: -91.7

Q: Same lookup for `COc1ccccc1C1(C(=O)NCCN2CCCCC2)CCOCC1` , please.
Ans: -10.3

Q: Same lookup for CCc1cc(N2CCC(NC(=O)CCC3CCCO3)CC2)ncn1 (stereo not drawn) , please.
Ans: 8.31

Q: Same lookup for `CCOCCC(=O)N(CCC#N)c1ccc(C)c(C)c1` , please.
Ans: 4.06

Q: Same lookup for `Cc1ccc(C(=O)NS(=O)(=O)c2cccc3cnccc23)c(=O)[nH]1` , please.
Ans: -8.16

Q: Same lookup for Cc1cc(NC2CC3(CCN(Cc4csc(C)n4)C3)C2)ncn1 (stereo not drawn) , please.
Ans: -2.34

Q: Same lookup for `CCc1nsc(N2CCc3sccc3C2)n1` , please.
Ans: 1.56

Q: Same lookup for COc1cc(C2CC(=O)Nc3c2nc2n3CCCC2)cc(OC)c1O (stereo not drawn) , please.
Ans: -9.59

Q: Same lookup for O=C1CCCN1C(CNS(=O)(=O)C1CC1)Cc1cccc(F)c1 (stereo not drawn) , please.
Ans: 1.49

Q: Same lookup for O=c1c2cccc(Cl)c2ncn1C1CCNC1 (stereo not drawn) , please.
Ans: -41.2

Q: Same lookup for CC(C)C(C)(C#N)NC(=O)Cn1cc(I)cn1 (stereo not drawn) , please.
Ans: 18.1

Q: Same lookup for COC(=O)CC1CCN(C(=O)Nc2ccc(-c3ccn[nH]3)cc2)C1 (stereo not drawn) , please.
Ans: 3.57

Q: Same lookup for `Cc1ccc(CN2C[C@@H]3CN(c4ncc(F)cn4)C[C@@H]3C2)cc1` , please.
Ans: 1.86

Q: Same lookup for Cc1ccc(S(=O)(=O)N2CCC(c3n[nH]cc3C)C2)cc1 (stereo not drawn) , please.
Ans: -14.3

Q: Same lookup for CS(=O)(=O)NCC1CCCCN1C(=O)c1ccc(Br)s1 (stereo not drawn) , please.
Ans: 1.58

Q: Same lookup for `O[C@@H]1CN(c2noc(C3CC3)n2)CC[C@H]1c1ccc2ccccc2c1` , please.
Ans: 5.11

Q: Same lookup for `O=C1C[C@H]2[C@H](CCN2C(=O)c2ccno2)N1CC1CC1` , please.
Ans: 2.77

Q: Same lookup for `O=C(NC[C@H]1C[C@@H]2CCN1C[C@@H]2CN1CCOCC1)Nc1ccccc1` , please.
Ans: 5.96

Q: Same lookup for `CN(C)C(=O)c1cccn1-c1ccc2c(c1)OCCO2` , please.
Ans: 12.6

Q: Same lookup for O=C(C1CCCO1)N1CCC2(CC1)CNCCO2 (stereo not drawn) , please.
Ans: -7.06

Q: Same lookup for `CCN1CCN(c2ncc(-c3cc(C)no3)c(-c3ccc(C)s3)n2)CC1` , please.
Ans: 2.44

Q: Same lookup for O=S(=O)(C1CC1)N1CCC2(CCCN(c3ncc(F)cn3)C2)C1 (stereo not drawn) , please.
Ans: 11.5

###

Would you kindly list cytotoxicity at 10 µM for each of these compounds?
# Measurement Protocol: Toxicity liver stage against HepG2, at 10uM
# Format: cell-based
# Set-up: test concentration 10 uM, cell line HepG2-A16-CD81EGFP
# Details: human, HepG2-A16-CD81EGFP cells; read-out: INHIBITION
I only need the number, in %, no unit after it.

Q: So what does the record say about cytotoxicity at 10 µM for `CCc1nnc(CNC(=O)CCN2CCN(c3cccc(C)c3)CC2)s1` ?
Ans: -1.82

Q: Same lookup for `CC(C)(CNC(=O)C1(c2cccc(Br)c2)CCOCC1)C(=O)O` , please.
Ans: 2.9

Q: Same lookup for Cc1ccc(CNC(=O)c2c[nH]nc2NC(=O)C2COCCO2)cc1 (stereo unspecified) , please.
Ans: -9.95

Q: Same lookup for COC(C(=O)NC1CCN(S(C)(=O)=O)CC1)c1ccccc1 (stereo unspecified) , please.
Ans: -4.68

Q: Same lookup for CCOC(=O)NC1CCCN(c2cncc(Br)c2)C1 (stereo unspecified) , please.
Ans: -46.4

Q: Same lookup for c1ccc2sc(NCC3(N4CCOCC4)CCSC3)nc2c1 (stereo unspecified) , please.
Ans: 0.375

Q: Same lookup for CSCCC(O)C(=O)N(C)Cc1cnn(-c2ccc(F)cc2)c1 (stereo unspecified) , please.
Ans: -5.36

Q: Same lookup for `CC(C)(C)c1cnc(CN2CCC(NC(=O)NC3CCCCC3)CC2)o1` , please.
Ans: -3.73

Q: Same lookup for `CN(Cc1ccc2c(c1)OCO2)Cc1nc2c(cnn2C)c(=O)[nH]1` , please.
Ans: -3.63

Q: Same lookup for `CC(C)(C)c1noc(CCCC(=O)N2CCNC(=O)CC2)n1` , please.
Ans: -7.49

Q: Same lookup for Cc1noc(C)c1CN1CC2(CCN(C(=O)c3cccn3C)C2)CC1=O (stereo unspecified) , please.
Ans: 6.53

###

# Measurement Protocol: Toxicity liver stage against HepG2, at 10uM
# Format: cell-based
# Set-up: test concentration 10 uM, cell line HepG2-A16-CD81EGFP
# Details: human, HepG2-A16-CD81EGFP cells; read-out: INHIBITION
Would you kindly list cytotoxicity at 10 µM for each of these compounds?
I only need the number, in %, no unit after it.

Q: So what does the record say about cytotoxicity at 10 µM for `Cc1nn(C)cc1-c1cc(C(F)(F)F)n(CCCN)n1` ?
Ans: -6.25

Q: Same lookup for `O=c1c2cn[nH]c2nc(SCCN2CCCC2)n1-c1ccccc1` , please.
Ans: -2.03

Q: Same lookup for `CN(Cc1ccccc1)C1(C(=O)NC(CO)CO)Cc2ccccc2C1` , please.
Ans: 2.59

Q: Same lookup for `CCc1cc(NCCNC(C)=O)nc(N2CCCC2)n1` , please.
Ans: -6.77

Q: Same lookup for `Cc1ccccc1-n1c(C)cc(C(=O)N2CCn3c(C)nnc3C2)c1C` , please.
Ans: -8.51

Q: Same lookup for `CC(C)(C)OC(=O)N1CCCN(Cc2ccon2)c2ccccc21` , please.
Ans: 11.1

Q: Same lookup for CC(C)C(NC(=O)c1ccc(Cl)cc1Cl)C(=O)Nc1ccn(C)n1 (centres undefined) , please.
Ans: 1.5

Q: Same lookup for CC(C)NC1CCc2c(ccc(=O)n2CCN(C)C)C1 (centres undefined) , please.
Ans: -1.7

Q: Same lookup for `Cc1[nH]nc2ncc(C(=O)N3CCN(CCC(C)C)CC3)cc12` , please.
Ans: 0.977

Q: Same lookup for COCC1COCCC12CCN(S(=O)(=O)c1cccnc1)CC2 (centres undefined) , please.
Ans: 6.62

Q: Same lookup for `Cc1ccc(CN2CCc3c(CN(C)C)n[nH]c3C2)s1` , please.
Ans: 1.93

Q: Same lookup for CC(C(=O)NCc1ccc(-n2cncn2)nc1)n1ccnc1 (centres undefined) , please.
Ans: 0.409

Q: Same lookup for `Cc1ccc(NC(=O)N2CCCN(C(N)=O)CC2)s1` , please.
Ans: -6.58

Q: Same lookup for `CCCS(=O)(=O)N1C[C@@H](c2nc(C)no2)C[C@H]2OCC[C@H]21` , please.
Ans: -130

Q: Same lookup for O=C(NCC1COC2(CCOCC2)O1)c1csc(-c2cccc(Cl)c2)n1 (centres undefined) , please.
Ans: -10.7

Q: Same lookup for `CC(C)c1cccc(-n2cc(O)c(C(N)=O)n2)c1` , please.
Ans: -5.93

Q: Same lookup for `c1cnc(N2CCC3(CCN(CC4CCCC4)CC3)C2)nc1` , please.
Ans: 0.845

Q: Same lookup for CC(=O)N(C)CC(=O)NC(CC(C)C)c1cccs1 (centres undefined) , please.
Ans: -1.49

Q: Same lookup for `Cc1nc(CN2CCO[C@@H]3CN(C(=O)CN(C)C)CC[C@@H]3C2)cs1` , please.
Ans: -0.587

Q: Same lookup for `CCc1nnsc1C(=O)N1CCCN(Cc2ccc(C)cc2)CC1` , please.
Ans: -4.28

Q: Same lookup for `O=C(CCc1ccccc1)N1CCC(c2n[nH]c(C3CC3)n2)CC1` , please.
Ans: -5.35

Q: Same lookup for CN(C)CCNC(=O)Nc1cccc(C[S+]([O-])Cc2ccccc2)c1 (centres undefined) , please.
Ans: 6.59

Q: Same lookup for COc1ccc(N2CCN(C(=O)C3[C@H]4CNC[C@@H]34)CC2(C)C)cc1 (some centres undefined) , please.
Ans: 12.1

Q: Same lookup for `Cc1cc(CNCCNS(C)(=O)=O)sc1Br` , please.
Ans: -4.6
